assay_system: laminin/nidogen interaction (laminin P1, recombinantly produced human nidogen) (Homo sapiens)
Construct: made in house; host or cells: HEK-293
Sequence (P14543 29-1247): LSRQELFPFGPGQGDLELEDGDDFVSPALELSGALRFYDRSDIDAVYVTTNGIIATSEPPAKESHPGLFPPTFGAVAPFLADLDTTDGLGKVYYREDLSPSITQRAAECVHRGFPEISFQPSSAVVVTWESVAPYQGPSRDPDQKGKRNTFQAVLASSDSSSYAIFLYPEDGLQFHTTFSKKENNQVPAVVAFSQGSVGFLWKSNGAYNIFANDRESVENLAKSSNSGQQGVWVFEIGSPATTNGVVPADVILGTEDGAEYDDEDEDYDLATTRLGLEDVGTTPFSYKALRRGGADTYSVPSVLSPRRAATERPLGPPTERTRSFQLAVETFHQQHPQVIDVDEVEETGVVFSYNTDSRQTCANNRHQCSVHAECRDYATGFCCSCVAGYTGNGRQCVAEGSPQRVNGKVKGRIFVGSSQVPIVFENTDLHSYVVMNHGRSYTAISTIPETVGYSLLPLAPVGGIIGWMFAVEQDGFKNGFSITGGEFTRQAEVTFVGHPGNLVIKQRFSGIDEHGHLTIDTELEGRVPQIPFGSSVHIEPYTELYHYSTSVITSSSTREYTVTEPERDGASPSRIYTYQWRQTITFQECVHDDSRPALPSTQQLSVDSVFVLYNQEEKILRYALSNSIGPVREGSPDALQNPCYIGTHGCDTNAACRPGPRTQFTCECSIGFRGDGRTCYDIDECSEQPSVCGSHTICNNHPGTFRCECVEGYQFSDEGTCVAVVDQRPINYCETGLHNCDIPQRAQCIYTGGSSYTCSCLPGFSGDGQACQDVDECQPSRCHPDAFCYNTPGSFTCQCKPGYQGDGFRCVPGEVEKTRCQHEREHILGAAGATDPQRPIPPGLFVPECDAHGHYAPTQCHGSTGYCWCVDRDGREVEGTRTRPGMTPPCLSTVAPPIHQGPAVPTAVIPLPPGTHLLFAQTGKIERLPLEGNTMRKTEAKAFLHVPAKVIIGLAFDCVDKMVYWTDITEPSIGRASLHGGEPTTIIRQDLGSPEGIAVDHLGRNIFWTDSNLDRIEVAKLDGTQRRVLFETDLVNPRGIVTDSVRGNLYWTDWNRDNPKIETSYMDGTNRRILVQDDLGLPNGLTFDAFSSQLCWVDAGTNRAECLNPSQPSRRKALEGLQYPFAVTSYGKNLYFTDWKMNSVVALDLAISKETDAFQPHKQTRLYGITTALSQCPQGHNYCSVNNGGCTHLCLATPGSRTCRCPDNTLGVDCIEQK
assay_method_text: HTS screening assay (time-resolved fluorescence), inhibition of laminin/nidogen binding
assay_conditions: hit structures recovered from the pentamer library screening; read-out: IC50
Non-standard residues stand in square brackets, D forms with d. Residues, ends and D or L forms follow the SMILES beside them. *: point of attachment. 2Nal = N[C@@H](Cc1ccc2ccccc2c1)C(=O)O; NH(3-hydroxypropyl) = OCCCN*
endpoint: pIC50
Lab note: report pIC50 as minus log10 of the concentration in molar units, number only.

Sample records with pIC50:
compound: CC(C)[C@H](NC(=O)[C@H](CO)NC(=O)[C@H](CC(N)=O)NC(=O)[C@H](Cc1ccc2ccccc2c1)NC(=O)[C@@H](N)CC(=O)O)C(=O)NCC(=O)NCCCO [Compound 4] (H-D[2Nal]NSVG-{NH(3-hydroxypropyl)})
pIC50: 6.31

compound: CC[C@H](C)[C@H](NC(=O)[C@H](C)NC(=O)[C@H](CC(N)=O)NC(=O)[C@H](Cc1ccc2ccccc2c1)NC(=O)[C@@H](N)CC(=O)O)C(=O)NCC(=O)NCCCO [Compound 8] (H-D[2Nal]NAIG-{NH(3-hydroxypropyl)})
pIC50: 6.33

Continue with the next compound.
*Q* Can you share its pIC50? I mean this compound: CC(C)[C@H](NC(=O)[C@H](CC(=O)O)NC(=O)[C@H](CC(N)=O)NC(=O)[C@H](Cc1ccc2ccccc2c1)NC(=O)[C@@H](N)CC(=O)O)C(=O)NCC(=O)NCCCO [Compound 3] (H-D[2Nal]NDVG-{NH(3-hydroxypropyl)})
*A* 6.37
